Assay System: T1, recombinant human CTLA4 protein with human IgG1 Fc tag at the C-terminus (Acro biosystems, Cat#CT4-H5255) (human, UniProt P16410 37-162)
T1 construct: bought protein; also called human CTLA4-Fc; CTLA4-Fc; not shown: human IgG1 Fc tag at the C-terminus
T1 sequence (looked up): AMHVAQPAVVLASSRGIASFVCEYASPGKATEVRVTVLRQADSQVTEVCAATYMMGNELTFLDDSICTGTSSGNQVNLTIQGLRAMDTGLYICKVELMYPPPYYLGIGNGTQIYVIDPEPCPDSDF
Measurement Notes: cell based blocking FACS: antibody pre-mixed with human CTLA4-Fc (1 ug/mL), added to Daudi cells; blocked ligands: cell surface CD80/CD86
Method: Daudi cells were harvested from cell culture flasks at the log phase, washed twice and re-suspended in PBS containing 2% v/v Fetal Bovine Serum (FACS buffer). […] Cells were washed twice and re-suspended in FACS buffer. Fluorescence was measured using a Becton Dickinson FACS Canto II-HTS equipment. Data was analyzed using Graphpad Prism software and IC₅₀ values were reported.
Parameter: IC50 (nM)
Answer with a number only, understood to be in nM.

[[record]]
binder = "mouse anti-CTLA4 monoclonal antibody D1A7 (antibody, V domains shown, mouse mAb purified from hybridoma supernatant) VH: QVTLKESGPGMLQPSQTLSLTCSFSGFSLSSSKLGVGWIRQPAGKGLEWLAHIWWNDDNYYVPSLKSRLTISKDTSNNQVFLKITNVDAADTATYYCVQVPYYTTQPWFAYWGQGTLVTVSA VL: DIQMTQSPASLSASVGETVTITCRASGNIHNYLAWYLQNQGRSPQLLVYNTETLADGVSSRFSGSGSGTQYFLKISSLQPEDFGTYYCQHLWSTPWTFGGGTKLEIK"
value = 6.81

[[record]]
binder = "mouse anti-CTLA4 monoclonal antibody D1H3 (antibody, V domains shown, mouse mAb purified from hybridoma supernatant) VH: QVQLQQPGAELVNPGASVKLSCKASGYTFTSYWLHWVKQRPGRGLEWIGRIDPNRGTIYYNEKFNNKATVTVDKPSNTAYMQLSRLTLEDSAVYYCARGGSNFYAMDYWGQGTSVTVSS VL: DIQMTQSPASLSASVGETVTITCRTSENIYSYLAWYQQKQGESPQLLVYNAKTLAEGVPSRFSGSGSGTQFSLKINSLQPEDFGSYYCQNHDGIPFTFGSGTKLEIK"
value = 9.27

[[record]]
binder = "mouse anti-CTLA4 monoclonal antibody D2A4 (antibody, V domains shown, mouse mAb purified from hybridoma supernatant) VH: QVQLQQPGAELVKPGSSVNLSCKASGYTFTSYWVHWVKQGPGRGLEWIGRIDPNRGGTYYNENFKTKAALTVDSPSSTAYMHLSSLTSEDSAVYYCARGGLNYYALDYWGQGTSVTVSS VL: DIQMTQSPASLFASLGETVTITCRASENIYSYLAWYQQKQGKSPQLLVYNANTLTEGVPSSFSGSGSGTQFSLKINTLQPEDFGTYYCQHHYGIPFTFGSGTKLEIK"
value = 7.12


Query binder follows.
Q) Given the binder mouse anti-CTLA4 monoclonal antibody D1D5 (antibody, V domains shown, mouse mAb purified from hybridoma supernatant) VH: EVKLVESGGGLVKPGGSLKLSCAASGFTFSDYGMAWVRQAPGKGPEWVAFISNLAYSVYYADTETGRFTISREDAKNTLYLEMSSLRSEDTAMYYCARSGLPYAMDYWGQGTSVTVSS VL: DIQMTQTTSSLSASLGDRVTISCRASQDISNYLNWYQQKPDGTVKLLIYYISRLHSGVPSRFSGSGSGTDFSLTISNLEQEDIATYFCQQGRMLPWTFGGGTRLEIK , what is its reported IC50?
A) 4.77
